koff listing for selected binders.
# targetOrTestSystem: T1, human IL-2Rα (human, UniProt P01589 22-240, limits assumed)
# T1 construct: recombinant protein; also called hu IL-2R; human IL-2Ra
# T1 sequence: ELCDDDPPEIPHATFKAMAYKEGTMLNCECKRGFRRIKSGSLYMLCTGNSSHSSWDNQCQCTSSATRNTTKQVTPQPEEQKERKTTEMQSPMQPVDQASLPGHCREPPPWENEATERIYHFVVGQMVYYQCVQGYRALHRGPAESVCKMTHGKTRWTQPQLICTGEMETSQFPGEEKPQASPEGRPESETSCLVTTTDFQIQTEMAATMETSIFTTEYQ
# testSummary: SPR, P.E. on immobilised antigen
endpointLabel: koff (s⁻¹)

>  <binder>
FJ1427_P035MP01G01 (VHH, periplasmic extract; also called clone nr) VHH: QVQLQESGGGLVQAGGSLRLSCAASGRTFRTHNMGWFRRAPGKEREFVAAISWNVDNTLYADSVKGRFTISRDNDRNMVYLQMNSLKPEDTAVYFCAADNIPLSSDVRATATEFGYWGQGTRVTVSS

>  <number>
0.000414

$$$$
>  <binder>
FJ1427_P035MP01F02 (VHH, periplasmic extract; also called clone nr; 14) VHH: QVQLQESGGGLVQAGGSLRLSCAASGRTFRTHNMGWFRRAPGKEREFVAAISWNIDNKLYADSVKGRSTISRDNGGNMVFLQMNSLKPEDTAVYYCAADKIPLSSDVAATATEYDDWGQGTQVTVSS

>  <number>
0.00391

$$$$
>  <binder>
FJ1427_P035MP05A05 (VHH, periplasmic extract; also called clone nr; 417) VHH: QLQLVESGGGLVQAGGSLRLSCAASGLTFDGYAIGWFRQASGKEREGVSYINGRDGSTFYADSVKGRFIISSDNAKNTVDLQMNSLKPDDAAVYYCAVDRLGSRGAYVSTWWRPPDMDLWGKGTLVTVSP

>  <number>
0.00341

$$$$
>  <binder>
FJ1427_P035MP05H01 (VHH, periplasmic extract; also called clone nr) VHH: EVQLVESGGGLVQAGGSLRLSCAASGITFNDHTMAWFRQAPGKEREFVAARDWSDIITRYASSVKGRFTISRDNAGNTGFLQMNSLRPEDTAVYYCAAREGGVVAGVRSGAPYDYWGQGTQVTVSS

>  <number>
0.000141

$$$$
>  <binder>
FJ1427_P035MP05B08 (VHH, periplasmic extract; also called clone nr) VHH: QLQLVESGGGLVQAGGSLRLSCVAHGLTFDGYAIGWFRQAPGKELEGVSYITGSDGSRYYADSVKGRFTISSDVAKNTVYLHMNNLKPDDAARYYCAVDRLGSRGAYVSAWWRSSDMDLWGKGTLVTVSS

>  <number>
0.00253

$$$$
>  <binder>
13-MP05E12 (VHH, periplasmic extract; The row prints V ID 13-MP05E12 beside Clone ID ...MP05H07; clone nr; also called FJ1427_P035MP05H07) VHH: QVQLQESGGGLVQAGDSLRLSCAASGFNFGWHAMGWFRQAPGKEREFVATITWTGRDTYYADSVRGRFTISKDNAKDTLFLQMNSLRPDDTGVYYCAKARERATWAYSEDDCDYWGQGTQVTVSS

>  <number>
0.000742

$$$$
>  <binder>
FJ1427_P035MP05E03 (VHH, periplasmic extract; also called clone nr) VHH: EVQLVESGGGLVQAGGSLRLSCAASGRTLYSSYGMAWFRQAPGKERDFVGSISRYGTYTSYADSVKDRFTISRDNAKSTVYLQMNNTKPEDTAVYYCAAYTYSGSFYSTVKTHRDEYQYWGQGTQVTVSS

>  <number>
0.000772

$$$$
>  <binder>
FJ1427_P035MP01A01 (VHH, periplasmic extract; also called clone nr) VHH: EVQLVESGGGLVQAGDSLRLSCAASGRSFRNYILAWYRQAPGKEREFLAAISWLDGTLYADSVEDRFTISRDNPKNTVHLQMDNLKPEDTAVYYCAADRGPVRPVLAPDVDYWGQGTQVSVSS

>  <number>
0.00112

$$$$
